- Test system: green foxtail (Setaria viridis, SETVI)
- Assay Explanation: Post-emerge test, greenhouse herbicide activity screening
- Type: in vivo
- Test Settings: post-emerge, 250 g ai/ha, phytotoxicity rating 0-100 at 14 days after application
- Method: A standard greenhouse herbicide activity screening system was used to evaluate the herbicidal efficacy and crop safety of these test compounds. […] At 14 days after application of the test materials, phytotoxicity ratings were recorded. […]
Entries annotated with measured Post-emerge Herbicidal Activity SETVI

Here are 2 molecules together with their reported answers.
Molecule	Target Under Test	Result
COc1c(Cl)cc(F)c(N2C(=O)C3=C(CCCC3)C2=O)c1NC(=O)C=Cc1ccccc1	green foxtail (Setaria viridis, SETVI)	20
COc1c(Cl)cc(F)c(-n2ncc(C(F)(F)F)cc2=O)c1NC(=O)c1ccc2ccccc2c1	green foxtail (Setaria viridis, SETVI)	50

# next molecule below
# lookup: Post-emerge Herbicidal Activity SETVI of O=C(Nc1cc(Cl)ccc1N1C(=O)C2CCCCN2C1=O)c1ccc2ccccc2c1 (stereo not shown)
25
